Biological target: Prothrombin (Homo sapiens) (UniProt P00734)
Assay: Inhibition of thrombin (unknown origin) at 25 uM by homogeneous fluorimetric assay
Active and inactive are the calls of the source. The calls are words filed in the database; no cut-off is given here. Square brackets hold non-standard residues; d marks the D form. Peptide text beside a SMILES is read from it. * marks the point of attachment. ξ: configuration not given here. Phe(4-CN) = N#Cc1ccc(C[C@H](N)C(=O)O)cc1; 2Pal = N[C@@H](Cc1ccccn1)C(=O)O; 3Pal = N[C@@H](Cc1cccnc1)C(=O)O; Tle = CC(C)(C)[C@H](N)C(=O)O; ξTic = O=C(O)C1Cc2ccccc2CN1; ξChg = NC(C(=O)O)C1CCCCC1; ξPip = O=C(O)C1CCCCN1; Bz = O=C(c1ccccc1)*
recorded-endpoint: inhibition

[[record]]
molecule = "N=C(N)NCCC[C@H](NC(=O)c1ccccc1)C(=O)N[C@@H](CCCCN)C(=O)N[C@@H](Cc1cccnc1)C(N)=O (Bz-Arg-Lys-[3Pal]-NH2)"
assayed_system = "Prothrombin (Homo sapiens) (UniProt P00734)"
recorded_endpoint = "inhibition"
result = "inactive"

[[record]]
molecule = "N#Cc1ccc(C[C@H](NC(=O)[C@H](CCCCN)NC(=O)[C@H](CCCNC(=N)N)NC(=O)c2ccccc2)C(N)=O)cc1 (Bz-Arg-Lys-[Phe(4-CN)]-NH2)"
assayed_system = "Prothrombin (Homo sapiens) (UniProt P00734)"
recorded_endpoint = "inhibition"
result = "inactive"

[[record]]
molecule = "N=C(N)NCCC[C@H](NC(=O)c1ccccc1)C(=O)N[C@@H](CCCCN)C(=O)N[C@@H](Cc1ccccc1)C(N)=O (Bz-Arg-Lys-Phe-NH2)"
assayed_system = "Prothrombin (Homo sapiens) (UniProt P00734)"
recorded_endpoint = "inhibition"
result = "7.2%"

[[record]]
molecule = "N=C(N)NCCC[C@H](NC(=O)c1ccccc1)C(=O)N[C@@H](CCCCN)C(=O)N[C@@H](CO)C(N)=O (Bz-Arg-Lys-Ser-NH2)"
assayed_system = "Prothrombin (Homo sapiens) (UniProt P00734)"
recorded_endpoint = "inhibition"
result = "6.2%"

[[record]]
molecule = "N=C(N)NCCC[C@H](NC(=O)c1ccccc1)C(=O)N[C@@H](CCCCN)C(=O)N1Cc2ccccc2CC1C(N)=O (stereo partly drawn) (Bz-Arg-Lys-[ξTic]-NH2)"
assayed_system = "Prothrombin (Homo sapiens) (UniProt P00734)"
recorded_endpoint = "inhibition"
result = "inactive"


Req: Report inhibition for CC(C)(C)[C@H](NC(=O)[C@H](CCCCN)NC(=O)[C@H](CCCNC(=N)N)NC(=O)c1ccccc1)C(N)=O (Bz-Arg-Lys-[Tle]-NH2) please.
Resp: inactive

Req: Give its inhibition value. Item: N=C(N)NCCC[C@H](NC(=O)c1ccccc1)C(=O)N[C@@H](CCCCN)C(=O)N[C@@H](Cc1ccccn1)C(N)=O (Bz-Arg-Lys-[2Pal]-NH2)
Resp: inactive

Req: Quick one: inhibition of CC(C)(C)[C@H](NC(=O)[C@H](CCCCN)NC(=O)[C@H](CCCNC(=N)N)NC(=O)c1ccc(/C=C2\SC(=O)N(C3CCCC3)C2=O)cc1)C(N)=O ?
Resp: 10.2%

Req: I am curious: what inhibition value has been reported for N=C(N)NCCC[C@H](NC(=O)c1ccccc1)C(=O)N[C@@H](CCCCN)C(=O)N1CCCCC1C(N)=O (stereo partly drawn) (Bz-Arg-Lys-[ξPip]-NH2) ?
Resp: inactive

Req: Sample N=C(N)NCCC[C@H](NC(=O)c1ccccc1)C(=O)N[C@@H](CCCCN)C(=O)NC(C(N)=O)C1CCCCC1 (stereo partly drawn) (Bz-Arg-Lys-[ξChg]-NH2) — what was its inhibition?
Resp: inactive

---

Target: Genome polyprotein (dengue virus type 2)
Experiment: Inhibition of Dengue virus serotype 2 NS2B-NS3 protease at 50 uM by homogeneous fluorimetric assay
Square brackets hold non-standard residues; d marks the D form. Peptide text beside a SMILES is read from it. * marks the point of attachment. ξ: configuration not given here. Phe(4-NO2) = N[C@@H](Cc1ccc([N+](=O)[O-])cc1)C(=O)O; 3Pal = N[C@@H](Cc1cccnc1)C(=O)O; Phg = N[C@H](C(=O)O)c1ccccc1; Tle = CC(C)(C)[C@H](N)C(=O)O; ξTic = O=C(O)C1Cc2ccccc2CN1; ξPip = O=C(O)C1CCCCN1; Aib = CC(C)(N)C(=O)O; Bz = O=C(c1ccccc1)*
Below, each of the compounds is paired with its reported inhibition value.
Express the result in % but write the number alone.

[[record]]
compound = "N=C(N)NCCC[C@H](NC(=O)c1ccccc1)C(=O)N[C@@H](CCCCN)C(=O)N[C@@H](Cc1ccc([N+](=O)[O-])cc1)C(N)=O (Bz-Arg-Lys-[Phe(4-NO2)]-NH2)"
numeric_result = 66.6

[[record]]
compound = "CC(C)[C@H](NC(=O)[C@H](CCCCN)NC(=O)[C@H](CCCNC(=N)N)NC(=O)c1ccccc1)C(N)=O (Bz-Arg-Lys-Val-NH2)"
numeric_result = 60

[[record]]
compound = "CC(C)(C)[C@H](NC(=O)[C@H](CCCCN)NC(=O)[C@H](CCCNC(=N)N)NC(=O)c1ccccc1)C(N)=O (Bz-Arg-Lys-[Tle]-NH2)"
numeric_result = 18.8

[[record]]
compound = "N=C(N)NCCC[C@H](NC(=O)c1ccccc1)C(=O)N[C@@H](CCCCN)C(=O)N[C@H](C(N)=O)c1ccccc1 (Bz-Arg-Lys-[Phg]-NH2)"
numeric_result = 95

[[record]]
compound = "CC(C)(NC(=O)[C@H](CCCCN)NC(=O)[C@H](CCCNC(=N)N)NC(=O)c1ccccc1)C(N)=O (Bz-Arg-Lys-[Aib]-NH2)"
numeric_result = 55

[[record]]
compound = "N=C(N)NCCC[C@H](NC(=O)c1ccccc1)C(=O)N[C@@H](CCCCN)C(=O)N[C@@H](Cc1cccnc1)C(N)=O (Bz-Arg-Lys-[3Pal]-NH2)"
numeric_result = 61.3

[[record]]
compound = "N=C(N)NCCC[C@H](NC(=O)c1ccccc1)C(=O)N[C@@H](CCCCN)C(=O)N1CCCCC1C(N)=O (stereo partly drawn) (Bz-Arg-Lys-[ξPip]-NH2)"
numeric_result = 13.7

[[record]]
compound = "N=C(N)NCCC[C@H](NC(=O)c1ccccc1)C(=O)N[C@@H](CCCCN)C(=O)N[C@@H](Cc1ccccc1)C(N)=O (Bz-Arg-Lys-Phe-NH2)"
numeric_result = 80.7

[[record]]
compound = "N=C(N)NCCC[C@H](NC(=O)c1ccccc1)C(=O)N[C@@H](CCCCN)C(=O)NCC(N)=O (Bz-Arg-Lys-Gly-NH2)"
numeric_result = 70.4

[[record]]
compound = "CC[C@H](C)[C@H](NC(=O)[C@H](CCCCN)NC(=O)[C@H](CCCNC(=N)N)NC(=O)c1ccccc1)C(N)=O (Bz-Arg-Lys-Ile-NH2)"
numeric_result = 56.6


Req: Given CCCC[C@H](NC(=O)[C@H](CCCCN)NC(=O)[C@H](CCCNC(=N)N)NC(=O)c1ccc(/C=C(\C#N)C(=O)NC2CC2)cc1)C(N)=O , state its recorded inhibition.
Resp: 88.5

Req: Which inhibition reading was recorded for the compound N=C(N)NCCC[C@H](NC(=O)c1ccccc1)C(=O)N[C@@H](CCCCN)C(=O)N1Cc2ccccc2CC1C(N)=O (stereo partly drawn) (Bz-Arg-Lys-[ξTic]-NH2) ?
Resp: 41.6

Req: # inhibition lookup, item N=C(N)NCCC[C@H](NC(=O)c1ccc(/C=C2\SC(=O)N(C3CCCC3)C2=O)cc1)C(=O)N[C@@H](CCCCN)C(=O)N[C@H](C(N)=O)c1ccccc1
Resp: 99.6

---

Target: Prothrombin (Homo sapiens) (UniProt P00734)
Test: Inhibition of thrombin (unknown origin) at 25 uM by homogeneous fluorimetric assay
Calls of active or inactive are those of the source. No cut-off for these calls is given here. Square brackets hold non-standard residues; d marks the D form. Peptide text beside a SMILES is read from it. * marks the point of attachment. ξ: configuration not given here. Phe(4-NO2) = N[C@@H](Cc1ccc([N+](=O)[O-])cc1)C(=O)O; Cha = N[C@@H](CC1CCCCC1)C(=O)O; ξPra = C#CCC(N)C(=O)O; Bz = O=C(c1ccccc1)*; βAla = NCCC(=O)O
recorded-endpoint: inhibition

Use the examples below as a reference point.
[[record]]
molecule = "C#CCC(NC(=O)[C@H](CCCCN)NC(=O)[C@H](CCCNC(=N)N)NC(=O)c1ccccc1)C(N)=O (stereo partly drawn) (Bz-Arg-Lys-[ξPra]-NH2)"
result = "5.2%"

[[record]]
molecule = "N=C(N)NCCC[C@H](NC(=O)c1ccccc1)C(=O)N[C@@H](CCCCN)C(=O)NCCC(N)=O (Bz-Arg-Lys-[βAla]-NH2)"
result = "inactive"

[[record]]
molecule = "N=C(N)NCCC[C@H](NC(=O)c1ccccc1)C(=O)N[C@@H](CCCCN)C(=O)N[C@@H](CC1CCCCC1)C(N)=O (Bz-Arg-Lys-[Cha]-NH2)"
result = "inactive"

[[record]]
molecule = "C[C@H](NC(=O)[C@H](CCCCN)NC(=O)[C@H](CCCNC(=N)N)NC(=O)c1ccccc1)C(N)=O (Bz-Arg-Lys-Ala-NH2)"
result = "7.2%"

[[record]]
molecule = "CC[C@H](C)[C@H](NC(=O)[C@H](CCCCN)NC(=O)[C@H](CCCNC(=N)N)NC(=O)c1ccccc1)C(N)=O (Bz-Arg-Lys-Ile-NH2)"
result = "4.6%"

[[record]]
molecule = "N#C/C(=C\\c1ccc(C(=O)N[C@@H](CCCNC(=N)N)C(=O)N[C@@H](CCCCN)C(=O)NC(C(N)=O)c2ccccc2)cc1)C(=O)NC1CC1 (stereo partly specified)"
result = "5.6%"


Req: // inhibition lookup, key: N=C(N)NCCC[C@H](NC(=O)c1ccccc1)C(=O)N[C@@H](CCCCN)C(=O)N[C@@H](Cc1ccc([N+](=O)[O-])cc1)C(N)=O (Bz-Arg-Lys-[Phe(4-NO2)]-NH2)
Resp: inactive

Req: Data request, read-out inhibition, for CC(C)[C@H](NC(=O)[C@H](CCCCN)NC(=O)[C@H](CCCNC(=N)N)NC(=O)c1ccccc1)C(N)=O (Bz-Arg-Lys-Val-NH2)
Resp: 4.9%

Req: Could you share which inhibition value was measured for C[C@@H](O)[C@H](NC(=O)[C@H](CCCCN)NC(=O)[C@H](CCCNC(=N)N)NC(=O)c1ccccc1)C(N)=O (Bz-Arg-Lys-Thr-NH2) ?
Resp: inactive

Req: Give the measured inhibition of CC(C)(C)[C@H](NC(=O)[C@H](CCCCN)NC(=O)[C@H](CCCNC(=N)N)NC(=O)c1ccc(/C=C(\C#N)C(=O)NC2CC2)cc1)C(N)=O .
Resp: 5%

Req: Dear colleague, I am looking for the recorded inhibition of the following molecule: N=C(N)NCCC[C@H](NC(=O)c1ccccc1)C(=O)N[C@@H](CCCCN)C(=O)N[C@@H](Cc1ccc(O)cc1)C(N)=O (Bz-Arg-Lys-Tyr-NH2)
Resp: 7.9%
